Assay: Toxicity liver stage against HepG2, at 10uM
Type: cell-based
Design: test concentration 10 uM, cell line HepG2-A16-CD81EGFP
Conditions: human, HepG2-A16-CD81EGFP cells; read-out: INHIBITION
measurement_label: cytotoxicity at 10 µM (%)
Numbers only, in %.

So what does the record say about cytotoxicity at 10 µM for O=C(Cc1cccnc1)N1CCC2(CC1)CCN(C1CCOCC1)C2 ?
-8.16

So what does the record say about cytotoxicity at 10 µM for CCCc1ccc2oc(C(=O)N3CCN(CCC(N)=O)CC3)c(C)c2c1 ?
0.424

So what does the record say about cytotoxicity at 10 µM for Cc1nc(CC(=O)NCCN2CCC(c3ccccc3C)C2)cs1 (stereo not given) ?
-40

Give one value of cytotoxicity at 10 µM per listed compound.
1. COc1ccc(CSCC(O)CO)c(Cl)c1 (stereo not given)
2. O=C(c1ccc(Cn2ccccc2=O)o1)N1CCSCC1
3. CN(C)CCNC(=O)c1cc2n(n1)CCN(C(=O)CC(C)(C)C)C2
4. COCCNC(=O)c1ccc(NCc2csc(C)n2)cc1Cl
5. O=C(NCC1=CCCCC1)C(c1cccnc1)N1CCCC1 (stereo not given)
6. COc1c(CNCc2ccccc2CO)c(C)nn1C

1: -142; 2: -14.8; 3: -1.85; 4: 6.81; 5: -3.78; 6: 1.04

Give one value of cytotoxicity at 10 µM per listed compound.
1. COCCCNc1ncnc2c1CCN(C(=O)CC1C=CCC1)CC2 (stereo not given)
2. COc1nc2ccccc2cc1CN1CCC(CNS(C)(=O)=O)C1 (stereo not given)
3. O=C(Nc1ccccc1OCC1CCCCO1)c1ccc(O)nc1 (stereo not given)
4. CC(=O)N1CCc2ccccc2C1CC(=O)NCc1nnc(C)o1 (stereo not given)
5. COCCNC(=O)Cn1c(-c2cccc(F)c2)nc(C)c(CCO)c1=O
6. COc1c(CNCc2cccnc2N2CCN(C)CC2)c(C)nn1C

5.97
-2.7
5.41
5.8
-2.37
-134
